Hi there, I'd appreciate the recorded recombinant UMI read abundance (log10) for every entry that follows.
- measurement_protocol: recombinant UMI read abundance after kanamycin selection (control-corrected) (log10(CPM+1)); higher = more efficient recombination; extreme values may be limits of the assay; sequences stand for … in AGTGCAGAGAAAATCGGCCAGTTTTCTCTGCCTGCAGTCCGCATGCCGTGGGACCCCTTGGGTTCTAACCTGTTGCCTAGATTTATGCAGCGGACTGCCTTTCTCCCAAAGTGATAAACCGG…AGGTTGGTTTCACT; site = the 11-nt donor;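 also: IS621 bridge recombinase in Escherichia coli cells against a fixed T5 target plasmid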
Give bare numbers.

Here is how some sequences turned out for recombinant UMI read abundance (log10).
{"residue_string": "TATCTGGCATGGACCGGTTTTCCCGGTAATCCGTATTTGTG (site TATTTGGCTCA)", "quantitative_result": 0.00973}
{"residue_string": "CGGAATCCATGGACCGGTTTTCCCGGTAATCCGTATTTGCT (site CGGAATCCTAT)", "quantitative_result": 0.767}
{"residue_string": "CTGCCTACATGGACCGGTTTTCCCGGTAATCCGTATTTGAG (site CTTCCTACTCT)", "quantitative_result": 0.12}
{"residue_string": "GACTTGGCATGGACCGGTTTTCCCGGTAATCCGTATTTGGA (site TACTTGGCTTC)", "quantitative_result": 0.28}

[ask] Tell me its recombinant UMI read abundance (log10) given GTTTGCACATGGACCGGTTTTCCCGGTAATCCGTATTTGTA (site GTGTGCACTTA) as the entry.
[reply] 0.0346

---

- measurement_protocol: recombinant UMI read abundance after kanamycin selection (control-corrected) (log10(CPM+1)); higher = more efficient recombination; extreme values may be limits of the assay; sequences stand for … in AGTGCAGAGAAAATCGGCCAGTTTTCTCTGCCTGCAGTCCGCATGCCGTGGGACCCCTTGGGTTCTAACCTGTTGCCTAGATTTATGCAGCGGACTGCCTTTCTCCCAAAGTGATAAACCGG…AGGTTGGTTTCACT; site = the 11-nt donor
Mark No for recombinant UMI read abundance (log10) values under 0.02, and Yes for everything at or above.

{"residue_string": "TATAACTCATGGACCGGTTTTCCCGGTAATCCGTATTTGGC (site TATAACTCTGC)", "assigned_category": "Yes"}
{"residue_string": "CTCTACACATGGACCGGTTTTCCCGGTAATCCGTATTTGAT (site CTCTACACTAA)", "assigned_category": "No"}
{"residue_string": "TCATGATCATGGACCGGTTTTCCCGGTAATCCGTATTTGCC (site TCATGATCTGG)", "assigned_category": "Yes"}

[ask] Tell me whether recombinant UMI read abundance (log10) is at least 0.02 here: CTATTGTCATGGACCGGTTTTCCCGGTAATCCGTATTTGAC (site CTAGTATCTGT)
[reply] No

[ask] Tell me whether recombinant UMI read abundance (log10) is at least 0.02 here: GATAAACCATGGACCGGTTTTCCCGGTAATCCGTATTTGGT (site GACAAACCTAC)
[reply] No

[ask] Tell me whether recombinant UMI read abundance (log10) is at least 0.02 here: CCCTTAGCATGGACCGGTTTTCCCGGTAATCCGTATTTGTG (site CCTTTAGCTCA)
[reply] Yes

[ask] Tell me whether recombinant UMI read abundance (log10) is at least 0.02 here: GATTATCCATGGACCGGTTTTCCCGGTAATCCGTATTTGCT (site GATTATACTAG)
[reply] No

[ask] Tell me whether recombinant UMI read abundance (log10) is at least 0.02 here: GACTTGACATGGACCGGTTTTCCCGGTAATCCGTATTTGCT (site GACTTGACTAG)
[reply] Yes

[ask] Tell me whether recombinant UMI read abundance (log10) is at least 0.02 here: TAGCGGCCATGGACCGGTTTTCCCGGTAATCCGTATTTGAA (site TAGCGGCCTTT)
[reply] Yes

Attribution: the supplement of paper PMC11208160
